Would you mind telling me the reported concentration at 4 h of each entry?
assay_procedure: Drug level in Sprague-Dawley rat plasma after 4 hrs
Type: ADME, cell-free
experimental_conditions: read-out: Drug uptake
Express the result in ng/mL but write the number alone.

Which concentration at 4 h value is on record for "Cc1ccc(O)c(Cn2c(NC3CCN(CCN)CC3)nc3c(C)cccc32)n1" ?
0.97

Which concentration at 4 h value is on record for "NCCN1CCC(Nc2nc3ccccc3[nH]2)CC1" ?
11.8

---

assay_procedure: Drug level in Sprague-Dawley rat lung after 4 hrs
Format: ADME, tissue-based
experimental_conditions: read-out: Drug uptake
metric: concentration at 4 h

Which concentration at 4 h value is on record for "Cc1ccc(O)c(Cn2c(NC3CCN(CCN)CC3)nc3c(C)cccc32)n1" ?
576 ng/mL

Which concentration at 4 h value is on record for "Cc1ccc(O)c(Cn2cnc3c(C)cccc32)n1" ?
3.9 ng/mL

Which concentration at 4 h value is on record for "NCCN1CCC(Nc2nc3ccccc3[nH]2)CC1" ?
247 ng/mL

---

assay_procedure: Drug level in Sprague-Dawley rat lung after 168 hrs
Format: ADME, tissue-based
experimental_conditions: read-out: Drug uptake
metric: concentration at 168 h (ng/mL)
Express the result in ng/mL but write the number alone.

Which concentration at 168 h value is on record for "Cc1ccc(O)c(Cn2c(NC3CCN(CCN)CC3)nc3c(C)cccc32)n1" ?
387

Which concentration at 168 h value is on record for "NCCN1CCC(Nc2nc3ccccc3[nH]2)CC1" ?
37.8

---

assay_procedure: Half life (24 to 96 hrs) in Sprague-Dawley rat lung
Assay type: ADME, tissue-based
# label = bin(measured half-life), where bins are small value (below 50 h), mid value (50 h to below 90 h), large value (90 h or more)

Tag the class for "Cc1ccc(O)c(Cn2c(NC3CCN(CCN)CC3)nc3ccccc32)n1"
large value

Tag the class for Cc1ccc(O)c(Cn2c(NC3CCN(CC(O)CN(C)C)CC3)nc3c(C)cccc32)n1 (centres undefined)
large value

Tag the class for Cc1ccc(O)c(Cn2c(NC3CCN(CCN)CC3)nc3c(C)cccc32)n1 [JNJ 2408068]
large value

Tag the class for "Cc1ccc(O)c(Cn2c(NC3CCN(CCC(N)=O)CC3)nc3c(C)cccc32)n1"
small value

Tag the class for "Cc1cc(C)c2nc(NCCCN3CCOCC3)n(Cc3nc(C)ccc3O)c2c1"
small value

Tag the class for "Cc1cc(C)c2nc(NCCCN3CCN(C)CC3)n(Cc3nc(C)ccc3O)c2c1"
mid value

Tag the class for "Cc1cc(C)c2nc(NCCCN)n(Cc3nc(C)ccc3O)c2c1"
mid value

Tag the class for Cc1cc(C)c2nc(NCC(O)CO)n(Cc3nc(C)ccc3O)c2c1 (centres undefined)
small value

Tag the class for "Cc1ccc(O)c(Cn2c(NC3CCN(CCN4CCCC4)CC3)nc3c(C)cccc32)n1"
large value

Tag the class for "CNS(=O)(=O)CCCN1CCC(Nc2nc3c(C)cccc3n2Cc2nc(C)ccc2O)CC1"
small value

Tag the class for "CNCCCNc1nc2c(C)cc(C)cc2n1Cc1nc(C)ccc1O"
large value

Tag the class for "Cc1ccc(O)c(Cn2c(NC3CCN(CCCS(N)(=O)=O)CC3)nc3c(C)cccc32)n1"
mid value

Tag the class for "Cc1ccc(O)c(Cn2c(NC3CCN(CCO)CC3)nc3c(C)cccc32)n1"
small value

Tag the class for "Cc1ccc(O)c(Cn2c(NC3CCN(CCN4CCOCC4)CC3)nc3c(C)cccc32)n1"
small value
